# targetSystem: T1, monkey Trop2 protein (Sino Biological, #90893-C08H) (monkey, UniProt A0A2K5UE71 27-274)
# T1 construct: bought protein; also called monkey Trop2 protein antigen (His tag)
# T1 sequence: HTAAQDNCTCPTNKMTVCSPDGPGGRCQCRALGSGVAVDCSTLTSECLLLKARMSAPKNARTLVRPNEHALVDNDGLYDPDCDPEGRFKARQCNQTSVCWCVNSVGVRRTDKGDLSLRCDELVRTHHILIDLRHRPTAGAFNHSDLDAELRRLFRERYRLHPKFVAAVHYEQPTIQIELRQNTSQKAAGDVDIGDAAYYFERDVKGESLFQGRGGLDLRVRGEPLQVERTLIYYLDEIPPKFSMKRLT
# experimentalDetails: BLI, Octet RED96, AHC sensor
quantity: pKd
Just so you know, pKd here is -log10 of the concentration in molar units; reply with that number alone.

Look over these answered cases.
[
  {
    "binder": "PR001160 (antibody, human IgG1, kappa, V domains shown, fully human IgG1/kappa; also called antibody No. (22)) VH: QVQLVESGGGVVQPGRSLRLSCEASGFTFSHYGMHWVRQAPGKGLEWVAVIWYDGIMKNYIESVKGRFTISRDNSKNTLYLQMNRLRAEDTAVYYCARDGGFGELNYYGLDVWGQGTTVTVSS VL: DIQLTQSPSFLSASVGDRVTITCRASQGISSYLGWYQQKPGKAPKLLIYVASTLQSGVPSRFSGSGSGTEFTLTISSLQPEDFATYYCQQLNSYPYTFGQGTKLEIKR",
    "pKd": 8.74
  },
  {
    "binder": "PR001164 (antibody, human IgG1, kappa, V domains shown, fully human IgG1/kappa; also called antibody No. (25)) VH: QVQLQQSGPGLVKPSQTLSLTCAISGDSVSSTSAVWNWIRQSPSRGLEWLGRTCYRSKWYNDYAVSVKSRITITPDTSKNQFSLRLNPVTPEDTAVYYCARGDFRFDSWGQGTLVTVSS VL: DIQLTQSPSFLSASVGDRVTITCRASQGISSYLAWYQQKPGKAPKLLIYAASTLQSGVPSRFSGSGSGTEFTLTISSLQPEDFATYYCQQVKIYPLTFGGGTKVEIKR",
    "pKd": 8.69
  }
]

Read the next record carefully.
Task item: Give the reported pKd for this binder. PR001138 (antibody, human IgG1, kappa, V domains shown, fully human IgG1/kappa; also called antibody No. (7)) VH: QVQLQESGPRLVKPSETLSLTCAVSGYSISSGYYWGWIRQSPGMGLEWIAYIYHDGSTYCNPSLKSRVTMSVDTSKNQFSLKLRSVTAADTAVYYCARDGAAAPFDYWGQGTLVTVSS VL: DIQMTQSPSTLSASVGDRVTITCRASQSISNWLAWYQQKPGKAPKVLIYKASSLESGVPSRFSGSGSGTEFTLTINSLQPDDFATYYCQQYDSYSITFGQGTRLEIKR
Reply: 9.39
